- Tested on: NIC-evoked [3H]DA release from rat striatal slices
- test name: Nicotine-evoked [3H]dopamine release assay, superfused rat striatal slices
- Format: cell-based
- experimental conditions: 100 nM analog superfused 60 minutes prior to NIC (10 μM), percent of that in the absence of analog
Each entry below carries its reported inhibition at 0.1 µM.
A number alone suffices; assume %.

What value of inhibition at 0.1 µM has been reported for the following compound? c1ccc2c(c1)ccc[n+]2CCCCCc1cc(CCCCC[n+]2cccc3ccccc32)cc(CCCCC[n+]2cccc3ccccc32)c1 [GZ556A]
8

What value of inhibition at 0.1 µM has been reported for the following compound? Cc1cc[n+](CCCCCc2cc(CCCCC[n+]3ccc(C)cc3)cc(CCCCC[n+]3ccc(C)cc3)c2)cc1 [GZ555C]
37

What value of inhibition at 0.1 µM has been reported for the following compound? C(#Cc1cc(C#CCCC[n+]2cccc(-c3ccccc3)c2)cc(C#CCCC[n+]2cccc(-c3ccccc3)c2)c1)CCC[n+]1cccc(-c2ccccc2)c1 [GZ550B]
49

New cases:
What value of inhibition at 0.1 µM has been reported for the following compound? CN1CCC[C@H]1c1ccc[n+](CCCC#Cc2cc(C#CCCC[n+]3cccc([C@@H]4CCCN4C)c3)cc(C#CCCC[n+]3cccc([C@@H]4CCCN4C)c3)c2)c1 [GZ551B]
63

What value of inhibition at 0.1 µM has been reported for the following compound? C(#Cc1cc(C#CCCC[n+]2ccc3ccccc3c2)cc(C#CCCC[n+]2ccc3ccccc3c2)c1)CCC[n+]1ccc2ccccc2c1 [GZ552B]
49

What value of inhibition at 0.1 µM has been reported for the following compound? Cc1ccc[n+](CCCC#Cc2cc(C#CCCC[n+]3cccc(C)c3)cc(C#CCCC[n+]3cccc(C)c3)c2)c1 [GZ550A]
46
